TEST: chemical genetic growth profiling, strain panel (AID 1159580);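 note: tested at 20 µM; growth read once vehicle control cultures reached saturation at 30 °C; lower values mean less growth of the strain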
PARTICULARS: S. cerevisiae deletion strains, growth OD, locus YCL069W, strain vba3
The whole screen tested about 5,500 compounds, of which about 2,000 (36%) were called active. About 18% were inconclusive and are not listed. Cut-off read from the data, not from the text of the source: active = normalized growth mostly below about 0.91 (no sharp cut-off); inconclusive = no clear call, values can overlap the other calls; inactive = mostly above about 0.92. The list shows a part of the results. Where a SMILES comes first, the peptide text is derived from it.
Labels: Y for active, N for inactive

{"COMPOUND": "CC(C)[N+](C)(CCC(C(N)=O)(c1ccccc1)c1ccccc1)C(C)C", "GROUP LABEL": "N"}
{"COMPOUND": "CCOC(=O)c1c(C)cc(O)cc1O", "GROUP LABEL": "N"}
{"COMPOUND": "CCCC(C)(COC(N)=O)COC(=O)NC(C)C (stereo unspecified)", "GROUP LABEL": "N"}
{"COMPOUND": "C[C@]12CCC3c4ccc(OS(=O)(=O)O)cc4CCC3C1CC[C@H]2O (stereo partly specified)", "GROUP LABEL": "N"}
{"COMPOUND": "CC(CC(C(N)=O)(c1ccccc1)c1ccccc1)N(C)C (stereo unspecified)", "GROUP LABEL": "N"}
{"COMPOUND": "O=c1ccc2cc(OC3OC(CO)C(O)C(O)C3O)c(O)cc2o1 (stereo unspecified)", "GROUP LABEL": "N"}
{"COMPOUND": "O=C(OC1Cc2c(O)cc(O)cc2OC1c1cc(=O)c(O)c2c(O)c(O)cc(C3Oc4cc(O)cc(O)c4CC3O)c2c1)c1cc(O)c(O)c(O)c1 (stereo unspecified)", "GROUP LABEL": "N"}
{"COMPOUND": "Oc1ccc2c(c1)OCC1(O)Cc3cc(O)c(O)cc3C21 (stereo unspecified)", "GROUP LABEL": "N"}
{"COMPOUND": "Cc1cc(OC(=O)c2c(C)cc(O)cc2O)cc(O)c1C(=O)O", "GROUP LABEL": "N"}
{"COMPOUND": "NC(=O)NCCCC(N)C(=O)O (stereo unspecified)", "GROUP LABEL": "N"}
{"COMPOUND": "O=C(O[C@@H]1Cc2c(O)cc(O)cc2O[C@@H]1c1cc(O)c(=O)c2c(O)c(O)cc([C@H]3Oc4cc(O)cc(O)c4C[C@H]3OC(=O)c3cc(O)c(O)c(O)c3)c2c1)c1cc(O)c(O)c(O)c1", "GROUP LABEL": "Y"}
{"COMPOUND": "COC(=O)[C@H](Cc1ccccc1)NC(=O)[C@@H](N)CC(=O)O (H-Asp-Phe-OMe)", "GROUP LABEL": "N"}
{"COMPOUND": "O=C(Cc1cccs1)NC1C(=O)N2C(C(=O)[O-])=C(C[n+]3ccccc3)CSC12 (stereo unspecified)", "GROUP LABEL": "N"}
{"COMPOUND": "CCCCC1C(=O)N(c2ccccc2)N(c2ccc(O)cc2)C1=O (stereo unspecified)", "GROUP LABEL": "N"}
{"COMPOUND": "C[C@]12C=CC(=O)C=C1CCC1C2[C@@H](O)C[C@@]2(C)C1CC[C@]2(O)C(=O)COP(=O)(O)O (stereo partly specified)", "GROUP LABEL": "N"}
{"COMPOUND": "CCC(=O)c1c(O)cc(O)cc1O", "GROUP LABEL": "N"}
{"COMPOUND": "COc1ccc2c(c1)CCC1C2CCC2(C)C1C[C@@H](O)C2O (stereo partly specified)", "GROUP LABEL": "N"}
{"COMPOUND": "CC(=O)Oc1ccc2c(c1OC(C)=O)OCC1(O)Cc3c(cc(OC(C)=O)c(OC(C)=O)c3OC(C)=O)C21 (stereo unspecified)", "GROUP LABEL": "N"}
{"COMPOUND": "O=C(O)C1=C[C@@H](O)[C@@H](O)[C@H](O)C1", "GROUP LABEL": "N"}
{"COMPOUND": "COC(=O)c1c(C)cc(OC)cc1O", "GROUP LABEL": "N"}
{"COMPOUND": "O=C1[O][Bi][O]c2ccccc21", "GROUP LABEL": "N"}

Taken from PubChem BioAssay AID1159580.
